# FLIPR EC50 listing for each entry below
Molecular target: T1, human GALR2 (Galanin Receptor 2) (human, UniProt O43603 1-387)
T1 sequence: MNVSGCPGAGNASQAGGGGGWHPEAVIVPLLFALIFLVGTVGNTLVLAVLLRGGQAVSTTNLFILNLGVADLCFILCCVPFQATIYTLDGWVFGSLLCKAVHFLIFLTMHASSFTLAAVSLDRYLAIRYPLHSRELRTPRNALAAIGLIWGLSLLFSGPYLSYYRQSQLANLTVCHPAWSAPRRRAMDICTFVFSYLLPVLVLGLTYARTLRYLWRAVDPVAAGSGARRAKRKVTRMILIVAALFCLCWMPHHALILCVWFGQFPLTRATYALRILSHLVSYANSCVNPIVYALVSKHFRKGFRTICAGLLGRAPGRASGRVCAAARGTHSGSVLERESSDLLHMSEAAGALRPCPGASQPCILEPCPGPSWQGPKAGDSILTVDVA
Assay: cell-based or functional assay
Endpoint Label: FLIPR EC50

Binder | Experimental Value
NWTPQAMLYLKGAQG [human Neuropeptide Q-Glycine (SEQ ID NO: 14)] | 4.2 nM
NWTPQAMLYLKGAPG [NWTPQAMLYLKGAPG (SEQ ID NO: 40)] | 0.2 nM
NWAPQAMLYLKGAQG [NWAPQAMLYLKGAQG (SEQ ID NO: 24)] | 10.9 nM
WTPQAMLYLKGAQG [WTPQAMLYLKGAQG (SEQ ID NO: 22)] | 4.8 nM
PWTPQAMLYLKGAQG [PWTPQAMLYLKGAQG (SEQ ID NO: 33)] | 0.1 nM
NWTPQAMLYLKGAQA [NWTPQAMLYLKGAQA (SEQ ID NO: 32)] | 2 nM
NWTPQAMLYLKAAQG [NWTPQAMLYLKAAQG (SEQ ID NO: 30)] | 47 nM
NWTPQPMLYLKGAQG [NWTPQPMLYLKGAQG (SEQ ID NO: 36)] | 55 nM
NWTPAAMLYLKGAQG [NWTPAAMLYLKGAQG (SEQ ID NO: 26)] | 12.5 nM
AWTPQAMLYLKGAQG [AWTPQAMLYLKGAQG (SEQ ID NO: 23)] | 0.7 nM
NWTPQAMLYLPGAQG [NWTPQAMLYLPGAQG (SEQ ID NO: 37)] | 296 nM
NWTPQAMLYL [NWTPQAMLYL (SEQ ID NO: 21)] | 14 nM
NWPPQAMLYLKGAQG [NWPPQAMLYLKGAQG (SEQ ID NO: 34)] | 0.05 nM
NWTPQAMAYLKGAQG [NWTPQAMAYLKGAQG (SEQ ID NO: 28)] | 0.8 nM
NWTPQAMLYLKGAAG [NWTPQAMLYLKGAAG (SEQ ID NO: 31)] | 0.1 nM
NWTPQAMLYLKG [NWTPQAMLYLKG (SEQ ID NO: 19)] | 6.7 nM

Data credit: patent US20130196348A1
